Measured Barnyardgrass plant response rating accompanies every entry in the list below.
Test system: barnyardgrass (Echinochloa crus-galli)
Assay: Test A pre-/postemergence: barnyardgrass
Assay type: in vivo
Conditions: Postemergence, 500 g ai/ha; visual rating on 0 to 100 scale (0 no effect, 100 complete control), approximately ten days
Note: the reply should be a number with no unit written.

A selection of reference data follows.
SMILES_DATA	STUDY_TARGET	Barnyardgrass plant response rating
Cc1nn(-c2ccc(F)cc2)nc1Oc1ccc(F)c(C(F)(F)F)c1	barnyardgrass (Echinochloa crus-galli)	30
Cc1nn(-c2ccc(F)cc2)nc1Oc1cc(C(F)(F)F)ccn1	barnyardgrass (Echinochloa crus-galli)	20
CC(C)c1nn(-c2ccc(F)cc2)nc1Cc1cccc(C(F)(F)F)c1	barnyardgrass (Echinochloa crus-galli)	0
Cc1nn(-c2ccc(F)cc2)nc1Cn1cnc(C(F)(F)F)c1Cl	barnyardgrass (Echinochloa crus-galli)	0
CCCc1nn(-c2ccc(F)cc2)nc1Cc1ccnc(C(F)(F)F)c1	barnyardgrass (Echinochloa crus-galli)	90

Form field, Barnyardgrass plant response rating with barnyardgrass (Echinochloa crus-galli), item CCc1nn(-c2ccc(C(F)(F)F)cn2)nc1Cc1cccc(C(F)(F)F)c1 : 70

Form field, Barnyardgrass plant response rating with barnyardgrass (Echinochloa crus-galli), item Cc1nn(-c2ccccc2[N+](=O)[O-])nc1C(=O)c1cccc(C(F)(F)F)c1 : 0

Form field, Barnyardgrass plant response rating with barnyardgrass (Echinochloa crus-galli), item Cc1nn(-c2ccc(F)c(F)c2)nc1Oc1ccnc(C(F)(F)F)c1 : 90

Form field, Barnyardgrass plant response rating with barnyardgrass (Echinochloa crus-galli), item Fc1ccc(-n2nc(F)c(Cc3ccnc(C(F)(F)F)c3)n2)cc1 : 80

Form field, Barnyardgrass plant response rating with barnyardgrass (Echinochloa crus-galli), item CSc1ccc(-n2nc(C)c(C(=O)c3cccc(C(F)(F)F)c3)n2)cc1 : 10

Form field, Barnyardgrass plant response rating with barnyardgrass (Echinochloa crus-galli), item Cc1nn(-c2ccc(Cl)cc2)nc1Oc1ccnc(C(F)(F)F)c1 : 70

Form field, Barnyardgrass plant response rating with barnyardgrass (Echinochloa crus-galli), item OCc1nn(-c2ccc(C(F)(F)F)cc2)nc1Oc1cccc(C(F)(F)F)c1 : 30

Form field, Barnyardgrass plant response rating with barnyardgrass (Echinochloa crus-galli), item Cc1nn(-c2ccc(F)cc2)nc1Oc1cccc(OC(F)(F)F)c1 : 30

Form field, Barnyardgrass plant response rating with barnyardgrass (Echinochloa crus-galli), item Cc1nn(-c2ccccc2)nc1C(=O)c1cccc(C(F)(F)F)c1 : 20

Form field, Barnyardgrass plant response rating with barnyardgrass (Echinochloa crus-galli), item Cc1nn(-c2ccnc(F)c2)nc1C(=O)c1cccc(C(F)(F)F)c1 : 50

Form field, Barnyardgrass plant response rating with barnyardgrass (Echinochloa crus-galli), item Cc1nn(-c2cccc([N+](=O)[O-])c2)nc1C(=O)c1cccc(C(F)(F)F)c1 : 10

Form field, Barnyardgrass plant response rating with barnyardgrass (Echinochloa crus-galli), item Cc1nn(-c2ccc(C(F)(F)F)cc2)nc1C(=O)c1cccc(C(F)(F)F)c1 : 10

Form field, Barnyardgrass plant response rating with barnyardgrass (Echinochloa crus-galli), item COc1nn(-c2ccc(C(F)(F)F)cc2)nc1C(=O)c1ccnc(C(F)(F)F)c1 : 10
